Subject Of Test: hcGAS (Homo sapiens)
Sequence (Q8N884 whole entry): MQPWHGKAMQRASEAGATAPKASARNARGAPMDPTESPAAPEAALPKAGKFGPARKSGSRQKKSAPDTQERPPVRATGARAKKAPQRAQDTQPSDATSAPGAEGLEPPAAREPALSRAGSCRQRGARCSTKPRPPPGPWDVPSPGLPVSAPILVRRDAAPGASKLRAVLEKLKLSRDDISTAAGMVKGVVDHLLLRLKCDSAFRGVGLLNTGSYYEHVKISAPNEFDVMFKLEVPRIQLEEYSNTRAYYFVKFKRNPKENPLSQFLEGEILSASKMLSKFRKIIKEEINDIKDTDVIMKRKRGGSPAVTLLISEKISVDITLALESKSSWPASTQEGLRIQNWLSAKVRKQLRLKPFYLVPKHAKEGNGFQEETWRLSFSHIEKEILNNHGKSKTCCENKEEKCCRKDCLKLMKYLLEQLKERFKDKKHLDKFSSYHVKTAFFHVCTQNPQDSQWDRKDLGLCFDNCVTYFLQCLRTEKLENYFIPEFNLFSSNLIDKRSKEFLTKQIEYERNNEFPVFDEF
Assay Text: hcGAS LCMS assay (direct measurement of cGAMP production)
Assay type: biochemical
Assay Setup: 0.5 nM hcGAS, 100 μM ATP, 100 μM GTP, 25 nM dsDNA, 4 h incubation
pIC50: −log10 of the molar value.
Measurement Name: pIC50

* COCCNc1cc(C(=O)Nc2nnc(-c3cscc3C#N)s2)oc(=O)c1OC [Compound 138] | ≤ 6.70
* COc1c(N2CC[C@H](OC)C2=O)cc(C(=O)Nc2nnc(-n3nccc3C)s2)oc1=O [Compound 151] | 7.70 to 8.30
* COC[C@@H](C1CC1)N1CCOc2c1cc(C(=O)Nc1nnc(-n3nccc3C)s1)oc2=O [Compound 225] | > 8.30

====

Subject Of Test: hcGAS (Homo sapiens)
Assay Text: hcGAS Kinase-Glo assay (ATP depletion)
Type: biochemical
Assay Setup: 40 nM hcGAS, 100 μM ATP, 100 μM GTP, 25 nM dsDNA, 3 h incubation
pIC50: −log10 of the molar value.
Measurement Name: pIC50

* COc1c(NC2CCS(=O)(=O)CC2)cc(C(=O)Nc2nnc(-n3nccc3C)s2)oc1=O | 7.00 to 7.52
* COc1c(N2CC[C@H](S(C)(=O)=O)C2)cc(C(=O)Nc2nnc(-n3nccc3C)s2)oc1=O | 7.52 to 8.00
* COc1c(N[C@H](C)CO)cc(C(=O)Nc2nnc(-n3nccc3C)s2)oc1=O | 7.00 to 7.52
* COCC1CCN(c2cc(C(=O)Nc3nnc(-n4nccc4C)s3)oc(=O)c2OC)CC1 | 7.52 to 8.00
